Cited source: the METLIN SMRT retention time set (Domingo-Almenara et al. 2019)

test.summary: gradient 5% acetonitrile 3 min, to 50% in 2 min, to 85% in 15 min, held 3 min, 100 µL/min
study.conditions: column: Zorbax Extend-C18 2.1 x 50 mm; eluents: water / acetonitrile, 0.1% formic acid
reported.endpoint: RP-LC retention time (s)

For orientation, consider the following solved cases.
{"molecule": "CN1C(=O)c2cccnc2Sc2cc(NC(=O)C3CCCO3)ccc21 (stereo not drawn)", "test.result": 619}
{"molecule": "CCOc1ccc(-c2noc(Cn3c(=O)n(C(C)CC)c(=O)c4ccccc43)n2)cc1 (stereo not drawn)", "test.result": 1170}
{"molecule": "O=C(Cn1cnc2sc3c(c2c1=O)CCCC3)Nc1cccc(Cl)c1", "test.result": 984}
{"molecule": "O=C(Cn1c(=O)cc(-c2nc(C3CC3)no2)c2ccccc21)Nc1ccc2c(c1)OCO2", "test.result": 908}
{"molecule": "COc1ccc(CNC2=NCCNC23CCN(S(=O)(=O)c2ccc(CC(C)C)cc2)CC3)cc1", "test.result": 878}
{"molecule": "COc1ccc(OC)c(NC(=O)N2CCC3(CC2)N=C(c2ccc(Cl)cc2)C(=O)N3)c1", "test.result": 922}
{"molecule": "CCOc1ccccc1-c1noc(-c2nnn(Cc3nc(-c4ccccc4OC)oc3C)c2C)n1", "test.result": 1070}
{"molecule": "O=C(Nc1ccccc1F)N1CCCC(Cn2c(C3CC3)nc3cccnc32)C1 (stereo not drawn)", "test.result": 656}

[P] COc1cc(Cl)ccc1C(=O)N1CCC(COc2ccc(C(=O)NC(C)C)cc2)CC1
[Q] CCOc1ccc(-c2noc(CN3C(=O)COc4cc(C(C)(C)C)ccc43)n2)cc1
input: Lowest RP-LC retention time? choose P or Q Please identify the chosen entry by its label.
output: P
(P: 801 s, Q: 1260 s)

###

test.summary: gradient 5% acetonitrile 3 min, to 50% in 2 min, to 85% in 15 min, held 3 min, 100 µL/min
study.conditions: column: Zorbax Extend-C18 2.1 x 50 mm; eluents: water / acetonitrile, 0.1% formic acid
reported.endpoint: RP-LC retention time (s)

{"molecule": "Cc1ccc(C(=O)NCCc2cn(C)c3ncccc23)cc1F", "RP-LC retention time (s)": 720}
{"molecule": "CC(C)NC(=O)c1ccc(OCC2CCCN(C(=O)c3cccc(F)c3)C2)cc1 (stereo not given)", "RP-LC retention time (s)": 846}
{"molecule": "O=C(Nc1ccc2c(c1)C(=O)Nc1ccccc1O2)Oc1ccccc1", "RP-LC retention time (s)": 813}
{"molecule": "O=C(c1ccc(Cl)s1)N1CCCn2nc(-c3ccncc3)cc2C1", "RP-LC retention time (s)": 623}
{"molecule": "Cc1ccc(CN2CCCC(c3nc(C(C)C)no3)CCNC(=O)CC2)o1 (stereo not given)", "RP-LC retention time (s)": 636}

###

test.summary: gradient 5% acetonitrile 3 min, to 50% in 2 min, to 85% in 15 min, held 3 min, 100 µL/min
study.conditions: column: Zorbax Extend-C18 2.1 x 50 mm; eluents: water / acetonitrile, 0.1% formic acid
reported.endpoint: RP-LC retention time (s)

For orientation, consider the following solved cases.
{"compound": "Cn1nccc1-c1cccc(-c2noc(Cc3ccc(Br)cc3)n2)c1", "reported.endpoint": "RP-LC retention time", "u": "s", "test.result": 1150}
{"compound": "CC(=O)c1cccc(NC(=O)N(c2ccccc2)c2ccccc2)c1", "reported.endpoint": "RP-LC retention time", "u": "s", "test.result": 860}
{"compound": "O=C(Cn1ccc2ccc(N3CCOCC3)nc21)N1CCC(Cc2ccccc2)CC1", "reported.endpoint": "RP-LC retention time", "u": "s", "test.result": 1050}

[P] CCCN(Cc1cccs1)C(=O)c1cc2c(=O)n(CCC)c3ccccc3n2n1
[Q] CC1CCCCN1CCNC(=O)Cn1c2ccccc2c2cnn(C)c(=O)c21 (centres undefined)
input: Lab notebook, comparison: P versus Q , higher RP-LC retention time goes to which? Please identify the chosen entry by its label.
output: P
(P: 1140 s, Q: 620 s)
